molecules and their reported pIC50
- tgt: Sarcoplasmic Reticular Ca^++ -Release Channel (ryanodine receptor) (Oryctolagus cuniculus, UniProt P11716)
- Construct: skeletal sarcoplasmic reticulum membrane vesicles; from tissue; host or cells: skeletal muscle sarcoplasmic reticulum membrane vesicles
- experimentalProtocol: biochemical
- Type: binding
- setupConditions: second embodiment; read-out: IC50
pIC50 is defined as minus the log10 of a concentration measured in mol/L.

molecule	pIC50
CC1CCC2(O)C3(OC4(O)C[C@]2(C)C2(O)[C@H](OC(=O)c5ccc[nH]5)C(O)(C(C)C)C4(C)C32O)[C@@H]1OC(=O)CN=C(N)N (some centres unmarked) [XXIV, O10eq -Guanidinoacetyl-Ryanodine]	8.74

Then there is this molecule:
-- ask What does the record list as pIC50 for CC1CCC2(O)C3(C)CC4(O)OC2(C1OC(=O)CCNC(=O)OCc1ccccc1)C1(O)C3(O)C(OC(=O)c2ccc[nH]2)C(O)(C(C)C)C41C (centres unmarked) [IV] ?
-- reply 8.23

----------
- tgt: ryanodine receptor (skeletal sarcoplasmic reticulum membrane vesicles) (Oryctolagus cuniculus)
- Construct: skeletal sarcoplasmic reticulum membrane vesicles; from tissue; host or cells: skeletal muscle sarcoplasmic reticulum membrane vesicles
- Sequence (P11716 whole entry): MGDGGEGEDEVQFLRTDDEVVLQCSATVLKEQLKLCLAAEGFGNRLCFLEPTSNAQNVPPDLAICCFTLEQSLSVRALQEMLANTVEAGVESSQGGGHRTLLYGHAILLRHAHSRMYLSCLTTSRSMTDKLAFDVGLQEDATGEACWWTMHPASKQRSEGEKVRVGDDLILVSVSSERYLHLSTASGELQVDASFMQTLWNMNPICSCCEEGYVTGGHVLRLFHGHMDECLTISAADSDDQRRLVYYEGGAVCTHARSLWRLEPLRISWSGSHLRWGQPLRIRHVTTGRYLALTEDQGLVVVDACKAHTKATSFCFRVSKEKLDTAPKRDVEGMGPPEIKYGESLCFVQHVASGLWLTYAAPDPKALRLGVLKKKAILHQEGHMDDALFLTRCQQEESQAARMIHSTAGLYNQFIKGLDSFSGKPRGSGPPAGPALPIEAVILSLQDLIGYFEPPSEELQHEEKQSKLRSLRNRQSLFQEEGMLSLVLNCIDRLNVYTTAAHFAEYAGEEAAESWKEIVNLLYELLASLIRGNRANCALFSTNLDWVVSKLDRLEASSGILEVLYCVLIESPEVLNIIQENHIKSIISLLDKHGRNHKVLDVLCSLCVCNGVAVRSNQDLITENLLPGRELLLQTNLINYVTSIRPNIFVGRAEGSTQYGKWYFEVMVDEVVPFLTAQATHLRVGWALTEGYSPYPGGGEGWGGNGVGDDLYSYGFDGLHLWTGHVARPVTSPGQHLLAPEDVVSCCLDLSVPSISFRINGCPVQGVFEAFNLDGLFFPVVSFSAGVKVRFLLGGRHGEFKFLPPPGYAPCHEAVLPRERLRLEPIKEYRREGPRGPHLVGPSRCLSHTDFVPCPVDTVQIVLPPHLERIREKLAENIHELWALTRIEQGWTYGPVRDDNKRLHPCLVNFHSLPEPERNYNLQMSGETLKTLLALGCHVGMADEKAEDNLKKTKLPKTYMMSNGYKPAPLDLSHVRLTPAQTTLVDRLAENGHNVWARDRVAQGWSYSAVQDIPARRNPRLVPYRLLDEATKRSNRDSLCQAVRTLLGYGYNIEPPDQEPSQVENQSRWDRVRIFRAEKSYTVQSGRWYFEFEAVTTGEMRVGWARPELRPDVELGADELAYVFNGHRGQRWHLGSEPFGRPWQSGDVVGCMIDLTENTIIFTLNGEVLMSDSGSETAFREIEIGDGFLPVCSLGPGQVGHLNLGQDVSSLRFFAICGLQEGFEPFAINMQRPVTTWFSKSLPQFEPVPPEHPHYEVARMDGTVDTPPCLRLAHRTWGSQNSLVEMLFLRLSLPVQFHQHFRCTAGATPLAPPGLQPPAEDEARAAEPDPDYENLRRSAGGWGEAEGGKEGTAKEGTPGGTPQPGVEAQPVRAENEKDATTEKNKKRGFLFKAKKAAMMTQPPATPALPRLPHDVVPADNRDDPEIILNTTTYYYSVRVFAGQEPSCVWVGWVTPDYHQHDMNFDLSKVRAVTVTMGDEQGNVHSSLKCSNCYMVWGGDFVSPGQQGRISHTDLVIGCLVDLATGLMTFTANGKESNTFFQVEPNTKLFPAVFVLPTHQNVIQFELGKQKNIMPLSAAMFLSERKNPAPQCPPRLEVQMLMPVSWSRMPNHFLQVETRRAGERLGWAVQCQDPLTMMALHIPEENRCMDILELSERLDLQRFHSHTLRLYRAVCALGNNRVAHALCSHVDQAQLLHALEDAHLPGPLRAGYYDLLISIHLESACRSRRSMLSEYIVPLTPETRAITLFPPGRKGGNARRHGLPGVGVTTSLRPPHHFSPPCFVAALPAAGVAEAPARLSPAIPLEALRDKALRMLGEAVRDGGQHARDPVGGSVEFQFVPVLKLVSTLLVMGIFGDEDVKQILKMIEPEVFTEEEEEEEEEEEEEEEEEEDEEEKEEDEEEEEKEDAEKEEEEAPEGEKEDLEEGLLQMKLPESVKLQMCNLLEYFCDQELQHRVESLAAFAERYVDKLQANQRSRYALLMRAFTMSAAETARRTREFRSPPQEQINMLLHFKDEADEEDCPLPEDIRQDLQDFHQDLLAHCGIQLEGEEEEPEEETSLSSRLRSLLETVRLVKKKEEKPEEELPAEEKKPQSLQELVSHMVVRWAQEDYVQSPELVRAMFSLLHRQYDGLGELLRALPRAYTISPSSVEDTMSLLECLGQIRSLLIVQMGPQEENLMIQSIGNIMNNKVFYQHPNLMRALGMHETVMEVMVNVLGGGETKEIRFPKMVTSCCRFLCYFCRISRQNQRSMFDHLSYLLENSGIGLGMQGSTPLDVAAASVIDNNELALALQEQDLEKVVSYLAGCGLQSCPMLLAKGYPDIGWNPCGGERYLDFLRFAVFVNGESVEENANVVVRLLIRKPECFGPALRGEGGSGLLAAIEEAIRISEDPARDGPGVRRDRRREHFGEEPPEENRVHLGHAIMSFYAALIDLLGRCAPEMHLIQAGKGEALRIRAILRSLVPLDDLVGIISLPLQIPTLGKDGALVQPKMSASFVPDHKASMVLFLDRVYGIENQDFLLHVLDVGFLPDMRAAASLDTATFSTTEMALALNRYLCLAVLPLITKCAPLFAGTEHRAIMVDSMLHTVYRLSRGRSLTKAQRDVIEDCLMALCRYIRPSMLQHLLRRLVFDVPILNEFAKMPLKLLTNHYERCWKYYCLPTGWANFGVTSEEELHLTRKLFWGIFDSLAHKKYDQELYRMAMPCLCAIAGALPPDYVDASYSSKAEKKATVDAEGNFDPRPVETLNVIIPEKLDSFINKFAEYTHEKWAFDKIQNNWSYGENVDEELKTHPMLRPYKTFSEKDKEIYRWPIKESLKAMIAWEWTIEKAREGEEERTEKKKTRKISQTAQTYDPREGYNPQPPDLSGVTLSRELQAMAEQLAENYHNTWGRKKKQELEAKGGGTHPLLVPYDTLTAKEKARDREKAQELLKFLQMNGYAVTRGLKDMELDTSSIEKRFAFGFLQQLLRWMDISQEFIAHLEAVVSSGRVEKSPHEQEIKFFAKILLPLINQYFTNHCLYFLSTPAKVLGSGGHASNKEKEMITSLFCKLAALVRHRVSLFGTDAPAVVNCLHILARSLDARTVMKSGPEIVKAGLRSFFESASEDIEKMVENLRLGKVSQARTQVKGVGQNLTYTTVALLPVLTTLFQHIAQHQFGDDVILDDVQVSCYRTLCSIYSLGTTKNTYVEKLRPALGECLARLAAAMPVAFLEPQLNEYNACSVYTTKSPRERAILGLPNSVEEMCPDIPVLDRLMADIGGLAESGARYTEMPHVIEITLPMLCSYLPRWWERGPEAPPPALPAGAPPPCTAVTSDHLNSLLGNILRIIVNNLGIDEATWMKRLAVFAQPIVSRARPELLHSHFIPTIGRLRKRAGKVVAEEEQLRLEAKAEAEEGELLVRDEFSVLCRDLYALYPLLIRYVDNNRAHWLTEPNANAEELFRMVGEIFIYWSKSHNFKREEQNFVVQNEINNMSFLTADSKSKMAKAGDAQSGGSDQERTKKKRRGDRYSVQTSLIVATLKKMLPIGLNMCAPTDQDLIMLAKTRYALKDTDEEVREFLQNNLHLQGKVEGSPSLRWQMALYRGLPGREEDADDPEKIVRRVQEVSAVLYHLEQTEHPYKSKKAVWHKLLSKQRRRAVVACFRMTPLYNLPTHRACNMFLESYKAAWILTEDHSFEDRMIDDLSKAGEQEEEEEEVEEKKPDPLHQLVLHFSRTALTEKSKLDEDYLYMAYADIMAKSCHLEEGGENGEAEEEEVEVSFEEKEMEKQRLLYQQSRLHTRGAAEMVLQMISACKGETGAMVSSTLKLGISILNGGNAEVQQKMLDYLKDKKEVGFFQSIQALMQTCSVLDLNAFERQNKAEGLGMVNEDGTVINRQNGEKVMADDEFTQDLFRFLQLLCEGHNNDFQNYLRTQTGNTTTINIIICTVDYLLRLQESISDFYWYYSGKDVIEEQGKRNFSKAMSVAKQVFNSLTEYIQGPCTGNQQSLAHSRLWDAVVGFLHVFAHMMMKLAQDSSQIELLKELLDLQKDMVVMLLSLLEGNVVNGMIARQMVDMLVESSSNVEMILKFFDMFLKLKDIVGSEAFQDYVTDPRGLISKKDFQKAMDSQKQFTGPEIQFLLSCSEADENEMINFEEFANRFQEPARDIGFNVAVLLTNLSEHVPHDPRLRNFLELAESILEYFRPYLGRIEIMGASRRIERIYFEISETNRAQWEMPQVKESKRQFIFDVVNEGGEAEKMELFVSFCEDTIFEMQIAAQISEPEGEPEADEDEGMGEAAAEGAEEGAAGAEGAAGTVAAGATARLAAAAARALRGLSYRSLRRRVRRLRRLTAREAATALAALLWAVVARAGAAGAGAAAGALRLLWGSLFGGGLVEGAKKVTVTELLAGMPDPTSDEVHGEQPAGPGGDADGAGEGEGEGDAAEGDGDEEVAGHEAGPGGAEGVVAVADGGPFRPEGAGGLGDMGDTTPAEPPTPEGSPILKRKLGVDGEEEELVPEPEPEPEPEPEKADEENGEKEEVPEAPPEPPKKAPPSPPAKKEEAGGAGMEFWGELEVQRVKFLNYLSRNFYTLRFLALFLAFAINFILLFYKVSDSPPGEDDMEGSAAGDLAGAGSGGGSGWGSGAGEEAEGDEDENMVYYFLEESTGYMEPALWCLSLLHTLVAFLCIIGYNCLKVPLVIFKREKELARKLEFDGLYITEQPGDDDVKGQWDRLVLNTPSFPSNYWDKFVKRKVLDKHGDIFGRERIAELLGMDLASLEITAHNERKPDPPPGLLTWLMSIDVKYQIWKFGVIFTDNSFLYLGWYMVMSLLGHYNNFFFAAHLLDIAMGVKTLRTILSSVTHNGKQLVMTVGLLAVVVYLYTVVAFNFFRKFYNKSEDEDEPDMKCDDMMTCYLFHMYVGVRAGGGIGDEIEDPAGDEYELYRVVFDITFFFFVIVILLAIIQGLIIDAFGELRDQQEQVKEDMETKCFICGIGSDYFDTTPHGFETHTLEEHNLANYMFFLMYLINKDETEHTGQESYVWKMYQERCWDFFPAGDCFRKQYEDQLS
- experimentalProtocol: biochemical
- Assay type: binding
observedProperty: pIC50
Please treat pIC50 as minus the base-10 logarithm of the molar concentration.

-- ask Bench note: what pIC50 did C=C1CCC2(O)C3(C)CC4(O)OC2(C1O)C1(O)C3(O)C(OC(=O)c2ccc[nH]2)C(O)(C(C)C)C41C (stereo not shown) [Dehydroryanodine, dehydroryanodine] show?
-- reply 7.79

----------
- tgt: ryanodine receptor (skeletal sarcoplasmic reticulum membrane vesicles) (Oryctolagus cuniculus)
- Construct: skeletal sarcoplasmic reticulum membrane vesicles; from tissue; host or cells: skeletal muscle sarcoplasmic reticulum membrane vesicles
- experimentalProtocol: biochemical
- Format: binding
- setupConditions: Table I; mean ± standard deviation of replicates; read-out: KD
observedProperty: pKd
On this scale, pKd is minus log10 of a concentration expressed in M (mol/L).

compound	pKd
CC1CCC2(O)C3(C)CC4(O)OC2(C1OC(=O)CCNC(=O)CCCCC1SCC2NC(=O)NC21)C1(O)C3(O)C(OC(=O)c2ccc[nH]2)C(O)(C(C)C)C41C (stereo not drawn) [XIV, O10eq -N-Biotinlyl-β-Alanyl-Ryanodine]	7.60
C=C1CCC2(O)C3(C)CC4(O)OC2(C1OC(=O)CCC(=O)NC)C1(O)C3(O)C(OC(=O)c2ccc[nH]2)C(O)(C(C)C)C41C (centres unmarked) [XVIII, N-Methyl-Dehydroryanodine-Succinamidate]	7.70
C=C1CCC2(O)C3(C)CC4(O)OC2(C1OC(=O)CCNC(=O)c1ccc(I)cc1)C1(O)C3(O)C(OC(=O)c2ccc[nH]2)C(O)(C(C)C)C41C (stereo not drawn) [XII, p-Iodobenzoyl-β-alanyl-dehydroryanodine]	8.28
CC1=CC(C)=[N+]2C1=Cc1ccc(CCC(=O)NCCC(=O)OC3C(C)CCC4(O)C5(C)CC6(O)OC34C3(O)C5(O)C(OC(=O)c4ccc[nH]4)C(O)(C(C)C)C63C)n1[B-]2(F)F (centres unmarked)	7.80

For the next question, use this compound.
-- ask Can you share its pKd? I mean this compound: CC1CCC2(O)C3(C)CC4(O)OC2(C1OC(=O)CCNC(=O)c1cc(N=[N+]=[N-])ccc1[N+](=O)[O-])C1(O)C3(O)C(OC(=O)c2ccc[nH]2)C(O)(C(C)C)C41C (centres unmarked)
-- reply 7.90

----------
- tgt: ryanodine receptor (skeletal sarcoplasmic reticulum membrane vesicles) (Oryctolagus cuniculus)
- Construct: skeletal sarcoplasmic reticulum membrane vesicles; from tissue; host or cells: skeletal muscle sarcoplasmic reticulum membrane vesicles
- experimentalProtocol: biochemical
- Assay type: binding
- setupConditions: first embodiment; read-out: KD
Let's look at some molecules and their measured Kd.
The reply should contain only the number, in nM.

molecule	measurementUnit	Kd
C=C1CCC2(O)C3(C)CC4(O)OC2(C1OC(=O)CCNC(=O)c1ccc(I)cc1)C1(O)C3(O)C(OC(=O)c2ccc[nH]2)C(O)(C(C)C)C41C (stereo not drawn) [XII, p-Iodobenzoyl-β-alanyl-dehydroryanodine]	nM	5.2

-- ask May I ask what Kd has been recorded for CC1=CC(C)=[N+]2C1=Cc1ccc(CCC(=O)NCCC(=O)OC3C(C)CCC4(O)C5(C)CC6(O)OC34C3(O)C5(O)C(OC(=O)c4ccc[nH]4)C(O)(C(C)C)C63C)n1[B-]2(F)F (stereo not drawn) ?
-- reply 15.8
